Recorded values, source ChEMBL document CHEMBL3259520.

# pIC50 values compiled below
- Measured On: Aldo-keto reductase family 1 member B1 (Rattus norvegicus, UniProt P07943)
Would you please state pIC50, meaning minus log10 of the concentration in mol/L, as a bare number?

The value of pIC50 recorded for O=C(O)Cn1c(=O)c(/C=C/c2ccccc2)nc2ccccc21 when tested on Aldo-keto reductase family 1 member B1 (Rattus norvegicus, UniProt P07943) reads 6.09

The measured pIC50 that O=C(O)Cn1c(=O)c(/C=C/c2ccc(F)cc2)nc2cc([N+](=O)[O-])ccc21 showed for Aldo-keto reductase family 1 member B1 (Rattus norvegicus, UniProt P07943) is 6.44

Entry O=C(O)Cn1c(=O)c(/C=C/c2ccc(F)cc2)nc2cc(Cl)ccc21 , tested on Aldo-keto reductase family 1 member B1 (Rattus norvegicus, UniProt P07943), has a reported pIC50 of 6.18

The value of pIC50 recorded for O=C(O)Cn1c(=O)c(CCc2ccc(F)cc2)nc2ccccc21 when tested on Aldo-keto reductase family 1 member B1 (Rattus norvegicus, UniProt P07943) reads 5.94

Query molecule follows.
Tested on Aldo-keto reductase family 1 member B1 (Rattus norvegicus, UniProt P07943), the item COc1ccc(N2CCN(c3nc4ccccc4n(CC(=O)O)c3=O)CC2)cc1 showed pIC50 equal to 5.12
